Known IC50 of a selection of compounds
- assayedSystem: SARS-CoV-2 3CLpro (Severe acute respiratory syndrome coronavirus 2, UniProt P0DTD1)
- testDescription: biochemical
- testConditions: read-out: IC50 (μM), SARS-CoV-2 3CLPro assay

| compound | resultUnit | IC50 |
| --- | --- | --- |
| CC(C)C[C@H](NC(=O)OCc1ccccc1)C(=O)NN(CCC(N)=O)C(=O)CCl | µM | 0.017 |
| Cc1oncc1C(=O)N[C@@H](CC(C)C)C(=O)NN(CCC(N)=O)C(=O)CCl | µM | 0.07 |
| NC(=O)CCN(NC(=O)[C@H](CC1CC1)NC(=O)OCc1ccccc1)C(=O)CCl | µM | 0.023 |
| CNC(=O)CCN(NC(=O)[C@H](CC(C)C)N(C)C(=O)c1cc2ccccc2[nH]1)C(=O)CCl | µM | 0.074 |
| CC(C)C[C@H](NC(=O)c1cc2ncccc2[nH]1)C(=O)NN(CCC(N)=O)C(=O)C(F)Cl (stereo partly drawn) | µM | 0.038 |
| NC(=O)CCN(NC(=O)[C@H](CC1CCCCC1)NC(=O)c1cc2ccccc2[nH]1)C(=O)[C@H](F)Cl | µM | 0.005 |
